System: NCI/ADR-RES ovarian
procedure_text: NCI-60 one-dose screen, 48 h
cond: 10 µM unless noted
The panel holds about 83,000 compounds, 20% with a hit somewhere; the sample as a whole holds those more often. The source made the active and inactive calls. The calls were made as follows: active = growth percent below 10; inactive = the rest.
A correct response names exactly one class from T for active, F for inactive

// query Lab log entry: Cc1ccc(NC(=O)N[C@@H](Cc2cc(F)cc(F)c2)C(=O)N[C@@H]2C(=O)N3CCC[C@H]3C(=O)N3CCOC[C@H]3C(=O)N[C@@H](C)C(=O)N3C[C@H](C)C[C@H]3C(=O)O[C@H]2C)cc1 — outcome as called in the assay?
// result F

// query Lab log entry: COc1ccc(-c2cc(-c3ccccc3)nc(NCCNc3ccnc4cc(Cl)ccc34)n2)cc1 — outcome as called in the assay?
// result T

// query Lab log entry: COC(=O)[C@]1(C)CC[C@]2(C)CC[C@]3(C)C(=CC(=O)[C@@H]4[C@@]5(C)CCC(=O)NC(C)(C)[C@@H]5CC[C@]43C)[C@@H]2C1 — outcome as called in the assay?
// result T

// query Lab log entry: O=c1[nH]c2cc(Cl)c(Cl)cc2n2cc3ncccc3c12 — outcome as called in the assay?
// result F

// query Lab log entry: CC/C=C(\C)C(CCC)(CN=O)C(=O)OCC (stereo not drawn) — outcome as called in the assay?
// result F

// query Lab log entry: N#Cc1c(Cl)nc(SCC2CO2)nc1-c1ccccc1 (stereo not drawn) — outcome as called in the assay?
// result F

// query Lab log entry: c1cc2ccc3cc2cc1CNCCN1CCNCc2ccc4ccc(cc4c2)CNCCN(CCNC3)CCNCc2ccc3ccc(cc3c2)CNCC1 — outcome as called in the assay?
// result F

// query Lab log entry: COc1ccc(C2NC(=O)C(C#N)c3c2sc2c(F)cccc32)cc1 (stereo not drawn) — outcome as called in the assay?
// result F

###

Tested on: SW-620 colon
procedure_text: NCI-60 one-dose screen, 48 h
cond: 10 µM unless noted
Protocol: Growth inhibition of the SW-620 human tumor cell line is measured as a screen for anti-cancer activity. Cells are grown in 96 well plates and exposed to the test compound for 48 hours. Compounds are tested at a single concentration, which is 10^-5 M for most compounds. The reported endpoint is percent growth (GI% or GIPRCNT), where numbers from 0 - 100% represent growth inhibition, and numbers from -100% - 0 represent cell death. For example, a value of 40 represents 60% growth inhibition. […]
This is part of a sample that, as a whole, favours compounds with a hit. Of some 83,000 tested, about 20% had one in any assay. Active and inactive are the calls of the source. How the source made its calls: active means growth percent below 10; inactive means the rest.
A correct response names exactly one class from 1.0 = active, 0.0 = inactive

// query Lab log entry: O=C1CC(c2ccc3c(c2)OCO3)Nc2ccccc21 (stereo unspecified) — outcome as called in the assay?
// result 0.0

// query Lab log entry: CC(=O)O.CC(=O)O.O.[Fe] — outcome as called in the assay?
// result 0.0

// query Lab log entry: Cc1ccc(-c2cc(-c3ccc(C)cc3)nc(N3CCN(CCNc4ccnc5cc(Cl)ccc45)CC3)n2)cc1 — outcome as called in the assay?
// result 1.0

// query Lab log entry: COc1cc(NCc2cn(-c3ccc(C(=O)O)cc3)nc2-c2ccc(C(=O)O)cc2)cc(OC)c1OC — outcome as called in the assay?
// result 0.0

// query Lab log entry: CC(=O)OC[C@]12CC[C@@H](C(=O)CBr)[C@@H]1[C@H]1CC[C@@H]3[C@@]4(C)CCCNC(C)(C)[C@@H]4CC[C@@]3(C)[C@]1(C)CC2 — outcome as called in the assay?
// result 1.0

// query Lab log entry: COc1ccc2c(c1)C(C)Cc1c(Cl)ncnc1N2C (stereo unspecified) — outcome as called in the assay?
// result 1.0

// query Lab log entry: CC(C)OC(=O)Nc1cc(F)c(F)cc1F — outcome as called in the assay?
// result 0.0

// query Lab log entry: O=C(NNc1ccc(-c2ccccc2)nn1)c1ccc(F)cc1 — outcome as called in the assay?
// result 0.0

// query Lab log entry: Clc1ccc(/C=N/Nc2nc3ccccc3s2)c(Cl)c1 — outcome as called in the assay?
// result 0.0

// query Lab log entry: N#C/C(=C(/O)CCCO)c1nc2ccccc2c(=O)[nH]1 — outcome as called in the assay?
// result 0.0

// query Lab log entry: CCOC(=O)c1cnc2ccc(Br)cc2c1Nc1cccc(S(N)(=O)=O)c1 — outcome as called in the assay?
// result 0.0

// query Lab log entry: Cn1cc(-c2noc(-c3cn(C)c4ncccc34)n2)c2cc(Cl)ccc21 — outcome as called in the assay?
// result 0.0

// query Lab log entry: CCOC(=O)c1c[nH]n2c(=S)ncnc12 — outcome as called in the assay?
// result 0.0

// query Lab log entry: CC/C=C(\C)C(CCC)(CN=O)C(=O)OCC (stereo unspecified) — outcome as called in the assay?
// result 0.0

// query Lab log entry: Nc1nnc(CSc2nnc3n(Cc4ccccc4)c(=O)c4c5c(sc4n23)CCCC5)s1 — outcome as called in the assay?
// result 0.0

// query Lab log entry: Cc1ccccc1-n1nnc(C(=O)Nc2nc3ccc(F)cc3s2)c1C — outcome as called in the assay?
// result 0.0

// query Lab log entry: COc1ccc(/C=C(/C(=O)c2ccc(Cl)cc2)C(=O)C(F)(F)F)cc1 — outcome as called in the assay?
// result 0.0

// query Lab log entry: Cc1cccc(/C=C2\N=C(c3ccccc3)N(c3ccc(S(N)(=O)=O)cc3)C2=O)c1 — outcome as called in the assay?
// result 0.0

// query Lab log entry: C=C(C)[C@@H]1CC[C@]2(C(=O)N3CCN(C)CC3)CC[C@]3(C)[C@H](CC[C@@H]4[C@@]5(C)C/C(=C/c6ccncc6)[C@H](O)C(C)(C)[C@@H]5CC[C@]43C)[C@@H]12 — outcome as called in the assay?
// result 1.0

// query Lab log entry: O=C(Nc1cccc2cccnc12)c1cc(C(=O)c2ccc(Cl)cc2)n2ccc(-c3ccncc3)cc12 — outcome as called in the assay?
// result 0.0

// query Lab log entry: CN(C)Cc1ccc[nH]1 — outcome as called in the assay?
// result 0.0
